- system-under-test: human KDR on cells (human, UniProt P35968 20-1356)
- Sequence (P35968 20-1356): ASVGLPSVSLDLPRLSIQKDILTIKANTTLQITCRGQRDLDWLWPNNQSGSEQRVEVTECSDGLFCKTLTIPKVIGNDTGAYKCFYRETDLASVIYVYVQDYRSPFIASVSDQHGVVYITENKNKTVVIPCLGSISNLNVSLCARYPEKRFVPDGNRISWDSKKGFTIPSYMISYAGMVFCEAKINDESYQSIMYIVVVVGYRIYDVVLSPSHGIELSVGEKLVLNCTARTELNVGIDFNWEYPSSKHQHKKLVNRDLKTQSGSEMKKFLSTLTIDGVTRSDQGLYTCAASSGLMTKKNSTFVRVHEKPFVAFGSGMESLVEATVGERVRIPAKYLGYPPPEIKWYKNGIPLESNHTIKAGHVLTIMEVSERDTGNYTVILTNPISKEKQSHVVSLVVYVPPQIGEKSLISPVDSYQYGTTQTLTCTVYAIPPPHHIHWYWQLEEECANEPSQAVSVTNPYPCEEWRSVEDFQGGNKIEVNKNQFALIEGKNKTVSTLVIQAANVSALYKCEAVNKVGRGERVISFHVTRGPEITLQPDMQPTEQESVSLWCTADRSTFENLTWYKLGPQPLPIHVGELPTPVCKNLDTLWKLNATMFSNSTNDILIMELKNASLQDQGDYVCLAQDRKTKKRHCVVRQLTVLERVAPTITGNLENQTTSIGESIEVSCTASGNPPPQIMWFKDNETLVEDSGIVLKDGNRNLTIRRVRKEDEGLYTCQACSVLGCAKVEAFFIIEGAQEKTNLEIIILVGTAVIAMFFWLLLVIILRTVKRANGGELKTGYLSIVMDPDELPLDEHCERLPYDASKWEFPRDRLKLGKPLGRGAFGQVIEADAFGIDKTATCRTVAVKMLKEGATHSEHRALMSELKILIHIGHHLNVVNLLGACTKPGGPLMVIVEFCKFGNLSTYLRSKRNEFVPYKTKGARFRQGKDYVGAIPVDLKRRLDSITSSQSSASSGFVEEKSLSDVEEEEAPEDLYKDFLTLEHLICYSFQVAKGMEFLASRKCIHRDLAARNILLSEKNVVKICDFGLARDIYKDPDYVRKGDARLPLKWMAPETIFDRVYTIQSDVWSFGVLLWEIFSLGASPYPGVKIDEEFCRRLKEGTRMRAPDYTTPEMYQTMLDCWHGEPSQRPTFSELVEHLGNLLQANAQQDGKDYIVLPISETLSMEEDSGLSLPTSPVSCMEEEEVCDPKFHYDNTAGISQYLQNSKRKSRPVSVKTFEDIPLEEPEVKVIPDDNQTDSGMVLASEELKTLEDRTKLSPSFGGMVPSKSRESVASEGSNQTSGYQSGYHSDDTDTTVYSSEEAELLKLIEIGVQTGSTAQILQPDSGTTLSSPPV
- experiment-description: cell-based or functional assay
Here the recorded % Inhibition (Average) of VEGF-C-mediated KDR activity, antibody 10 nM is given for each entry.
quantity-measured: % Inhibition (Average) of VEGF-C-mediated KDR activity, antibody 10 nM (%)

binder	result-value
24B3 (antibody, V domains shown, Purified fully human monoclonal antibody from XenoMouse hybridoma (IgG2 or IgG4 strains); also called MAb 24B3) VH: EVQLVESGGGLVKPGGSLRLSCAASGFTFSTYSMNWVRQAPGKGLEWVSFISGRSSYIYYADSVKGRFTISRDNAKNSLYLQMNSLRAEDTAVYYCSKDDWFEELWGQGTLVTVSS VL: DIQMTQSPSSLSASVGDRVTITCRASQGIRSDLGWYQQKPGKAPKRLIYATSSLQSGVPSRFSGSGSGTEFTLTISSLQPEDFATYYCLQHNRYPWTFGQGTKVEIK	62
32F4 (antibody, V domains shown) VH: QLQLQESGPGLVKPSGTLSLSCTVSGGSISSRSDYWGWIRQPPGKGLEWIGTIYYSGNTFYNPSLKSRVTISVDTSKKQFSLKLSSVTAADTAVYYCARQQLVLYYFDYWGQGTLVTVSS VL: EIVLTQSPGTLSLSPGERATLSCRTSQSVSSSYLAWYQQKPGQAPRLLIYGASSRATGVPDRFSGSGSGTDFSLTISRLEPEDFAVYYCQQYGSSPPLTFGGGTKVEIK	77
33E1 (antibody, V domains shown) VH: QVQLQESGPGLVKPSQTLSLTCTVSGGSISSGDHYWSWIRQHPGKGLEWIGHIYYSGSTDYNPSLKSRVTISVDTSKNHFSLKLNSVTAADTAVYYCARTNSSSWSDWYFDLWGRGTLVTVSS VL: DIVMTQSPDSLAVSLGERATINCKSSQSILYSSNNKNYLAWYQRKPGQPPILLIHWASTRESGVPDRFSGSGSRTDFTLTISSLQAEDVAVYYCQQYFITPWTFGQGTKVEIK	69
22B8 (antibody, V domains shown) VH: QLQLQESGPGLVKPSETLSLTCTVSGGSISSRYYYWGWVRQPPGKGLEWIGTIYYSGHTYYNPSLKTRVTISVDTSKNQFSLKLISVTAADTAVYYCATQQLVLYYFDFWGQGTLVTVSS VL: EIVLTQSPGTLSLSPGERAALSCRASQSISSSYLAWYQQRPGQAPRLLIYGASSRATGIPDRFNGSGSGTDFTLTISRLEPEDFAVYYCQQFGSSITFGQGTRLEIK	65
21H6 (antibody, V domains shown) VH: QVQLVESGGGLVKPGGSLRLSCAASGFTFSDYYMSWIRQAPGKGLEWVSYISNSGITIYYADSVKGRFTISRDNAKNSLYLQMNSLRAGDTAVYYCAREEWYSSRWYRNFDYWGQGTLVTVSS VL: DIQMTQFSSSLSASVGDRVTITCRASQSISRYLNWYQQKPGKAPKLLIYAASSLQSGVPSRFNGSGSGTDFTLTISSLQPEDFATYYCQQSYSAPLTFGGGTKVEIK	84
33C3 (antibody, V domains shown, Purified fully human monoclonal antibody from XenoMouse hybridoma (IgG2 or IgG4 strains); also called MAb 33C3) VH: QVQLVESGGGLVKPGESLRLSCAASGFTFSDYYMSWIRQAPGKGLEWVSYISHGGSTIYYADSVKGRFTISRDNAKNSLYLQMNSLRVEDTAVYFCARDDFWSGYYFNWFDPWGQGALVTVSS VL: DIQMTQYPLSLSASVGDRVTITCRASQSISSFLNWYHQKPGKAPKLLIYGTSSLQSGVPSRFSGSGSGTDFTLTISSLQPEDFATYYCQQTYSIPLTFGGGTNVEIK	88
27A3 (antibody, V domains shown) VH: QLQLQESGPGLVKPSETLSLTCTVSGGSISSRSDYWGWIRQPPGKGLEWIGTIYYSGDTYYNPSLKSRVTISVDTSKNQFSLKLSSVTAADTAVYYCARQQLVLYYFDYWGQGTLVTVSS VL: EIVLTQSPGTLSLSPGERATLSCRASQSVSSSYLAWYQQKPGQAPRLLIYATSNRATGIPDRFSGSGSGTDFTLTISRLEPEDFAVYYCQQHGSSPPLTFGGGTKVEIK	78
31E11 (antibody, V domains shown) VH: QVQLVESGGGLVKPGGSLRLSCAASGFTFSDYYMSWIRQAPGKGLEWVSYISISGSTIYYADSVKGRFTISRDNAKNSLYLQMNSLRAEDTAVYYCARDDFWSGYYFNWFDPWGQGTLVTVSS VL: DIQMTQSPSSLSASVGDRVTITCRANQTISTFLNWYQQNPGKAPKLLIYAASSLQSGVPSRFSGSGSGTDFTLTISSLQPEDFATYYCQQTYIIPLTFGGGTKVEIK	83
33B1 (antibody, V domains shown) VH: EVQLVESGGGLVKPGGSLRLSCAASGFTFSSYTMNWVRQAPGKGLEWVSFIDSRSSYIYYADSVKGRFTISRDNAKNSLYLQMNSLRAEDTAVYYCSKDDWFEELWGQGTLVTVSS VL: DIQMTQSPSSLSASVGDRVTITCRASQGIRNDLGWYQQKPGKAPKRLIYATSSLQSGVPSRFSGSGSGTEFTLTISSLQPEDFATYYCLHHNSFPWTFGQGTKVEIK	62
